Reference source: patent US20210196796A1

Please provide measured Relative Proliferation Fold Change 3F8 1:2 for the entries that follow.
tested.system: T1, orthogonal hCD122 receptor (hoRb), hCD122 with H133D and Y134F (human, UniProt P14784 27-550)
T1 sequence: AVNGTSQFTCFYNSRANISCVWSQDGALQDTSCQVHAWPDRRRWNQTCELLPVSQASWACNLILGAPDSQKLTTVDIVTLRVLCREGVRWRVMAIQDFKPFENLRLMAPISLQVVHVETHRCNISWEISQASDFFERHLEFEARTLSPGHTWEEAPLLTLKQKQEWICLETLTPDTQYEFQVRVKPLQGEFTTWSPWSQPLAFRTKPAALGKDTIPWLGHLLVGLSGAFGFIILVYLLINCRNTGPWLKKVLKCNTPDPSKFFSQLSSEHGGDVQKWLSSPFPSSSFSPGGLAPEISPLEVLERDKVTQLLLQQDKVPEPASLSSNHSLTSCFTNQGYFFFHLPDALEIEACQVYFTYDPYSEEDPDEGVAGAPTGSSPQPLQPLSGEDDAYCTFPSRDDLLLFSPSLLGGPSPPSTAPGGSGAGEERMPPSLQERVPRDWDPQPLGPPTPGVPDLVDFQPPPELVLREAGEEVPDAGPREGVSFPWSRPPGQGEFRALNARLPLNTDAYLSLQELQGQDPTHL
experiment.notes: cell-based or functional assay

-- ask Give its Relative Proliferation Fold Change 3F8 1:2 value. Item: T3R, SQVLKA (ligand) APRSSSTKKTQLQLSQLLVLLKAILNGINNYKNPKLTRMLTFKFYMPKKATELKHLQCLEEELKPLEEVLNLAQSKNFHLRPRDLISNINVIVLELKGSETTFMCEYADETATIVEFLNRWITFCQSIISTLT
-- reply 8.43 fold

-- ask Likewise for R38G, SQVLKA (ligand) APTSSSTKKTQLQLSQLLVLLKAILNGINNYKNPKLTGMLTFKFYMPKKATELKHLQCLEEELKPLEEVLNLAQSKNFHLRPRDLISNINVIVLELKGSETTFMCEYADETATIVEFLNRWITFCQSIISTLT ?
-- reply 47.5 fold

-- ask Further, for SQVLMA (ligand) APTSSSTKKTQLQLSQLLVLLMAILNGINNYKNPKLTRMLTFKFYMPKKATELKHLQCLEEELKPLEEVLNLAQSKNFHLRPRDLISNINVIVLELKGSETTFMCEYADETATIVEFLNRWITFCQSIISTLT ?
-- reply 63.3 fold

-- ask Would you mind doing SQVLRA (ligand) APTSSSTKKTQLQLSQLLVLLRAILNGINNYKNPKLTRMLTFKFYMPKKATELKHLQCLEEELKPLEEVLNLAQSKNFHLRPRDLISNINVIVLELKGSETTFMCEYADETATIVEFLNRWITFCQSIISTLT as well?
-- reply 43 fold
